Parameter pIC50: see the listing below.
- target or test system: Choline kinase alpha (Homo sapiens, UniProt P35790)
- Sequence (P35790 whole entry): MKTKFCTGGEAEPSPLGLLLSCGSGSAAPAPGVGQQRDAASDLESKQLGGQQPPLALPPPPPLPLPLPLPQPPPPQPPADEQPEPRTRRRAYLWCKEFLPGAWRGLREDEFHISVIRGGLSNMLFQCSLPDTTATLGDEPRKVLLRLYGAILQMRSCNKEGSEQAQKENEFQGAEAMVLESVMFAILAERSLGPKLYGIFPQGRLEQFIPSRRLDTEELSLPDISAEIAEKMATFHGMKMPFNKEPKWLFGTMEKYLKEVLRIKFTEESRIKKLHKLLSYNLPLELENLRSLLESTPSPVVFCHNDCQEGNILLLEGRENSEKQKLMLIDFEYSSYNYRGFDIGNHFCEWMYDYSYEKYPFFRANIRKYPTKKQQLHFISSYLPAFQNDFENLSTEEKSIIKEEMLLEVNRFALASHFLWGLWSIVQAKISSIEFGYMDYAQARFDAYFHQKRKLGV
pIC50: −log10 of the molar value.

### Prompt For the record Nc1cc(C(F)(F)F)ncn1 , what value of pIC50 is listed for Choline kinase alpha (Homo sapiens, UniProt P35790)?
### Response < 3.52

### Prompt For the record CN1CCCN(c2ccc(CO)cc2)CC1 , what value of pIC50 is listed for Choline kinase alpha (Homo sapiens, UniProt P35790)?
### Response < 2.70

### Prompt For the record O=C(N1CCCCCC1)N1CCNCC1 , what value of pIC50 is listed for Choline kinase alpha (Homo sapiens, UniProt P35790)?
### Response < 3.52
